tested on: indigenous microorganisms; assay: Effect of sulfite salts on indigenous microorganisms of unsterilized wood chips (plating); type: cell-based, indigenous microorganisms of unsterilized aspen wood chips; conditions: 600 μg/ml
The entries below come with measured Inhibition Relative to control values attached.
Provide the reading as a plain figure in %.

The cases that follow already have their Inhibition Relative to control on record.
1) O=S([O-])[O-].[Na+].[Na+] [Sodium Sulfite]    0
2) O=S([O-])O.[Na+] [Sodium Bisulfite]    95
3) O=S(=O)([O-])[O-].[Na+].[Na+] [Sodium Sulfate]    0

Consider now this further compound.
Fill in reported Inhibition Relative to control for this entry: O=S([O-])([O-])=S.[Na+].[Na+] [Sodium Thiosulfate] 0
